Source: patent US7329680B2

recordedEndpoint: melting point

Consider the reported melting point for these compounds:
compound: O=C(O)CCNc1cc(-c2ccc(-c3cccc4c3oc3ccccc34)cc2)nc(-c2ccccc2)n1 [Example 46]
recordedEndpoint: melting point
valueReported: 210 °C (dec.)
--
compound: O=C(O)[C@@H]1CSC(c2ccc(-c3ccc(-c4c(Cc5ccccc5)oc5ccccc45)cc3)cc2)N1 (mixture of isomers) [Example 38]
recordedEndpoint: melting point
valueReported: 148 °C (dec.)
--
compound: CCc1ccc(-c2sc(NC(=O)c3ccc(S(=O)(=O)N4CCCC4C(=O)O)cc3)nc2-c2ccc(Cl)cc2)cc1 (stereo not drawn) [Example 5]
recordedEndpoint: melting point
valueReported: 289 to 292 °C
--
compound: O=C(O)CCNc1cc(-c2ccc(-c3cccc4c3oc3ccccc34)cc2)nc(Cc2ccccc2)n1 [Example 45]
recordedEndpoint: melting point
valueReported: 205 °C (dec.)
--
compound: O=C(O)[C@@H]1CSC(c2ccc(-c3ccc(-n4ccc5ccccc54)cc3)cc2)N1 (stereo in doubt) [Example 27]
recordedEndpoint: melting point
valueReported: 135 to 137 °C (dec.)

Let us move to another entry and its melting point.
What does the record list as melting point for O=C(O)C(=O)Nc1cc(-c2ccc(-c3cccc4c3oc3ccccc34)cc2)cn(Cc2ccccc2)c1=O [Example 4] ?
220 to 223 °C
